From: patent US7968570B2

Biological target: human mGluR2 receptor (Homo sapiens)
Construct: expressed in transfected cells
Sequence (Q14416 19-872): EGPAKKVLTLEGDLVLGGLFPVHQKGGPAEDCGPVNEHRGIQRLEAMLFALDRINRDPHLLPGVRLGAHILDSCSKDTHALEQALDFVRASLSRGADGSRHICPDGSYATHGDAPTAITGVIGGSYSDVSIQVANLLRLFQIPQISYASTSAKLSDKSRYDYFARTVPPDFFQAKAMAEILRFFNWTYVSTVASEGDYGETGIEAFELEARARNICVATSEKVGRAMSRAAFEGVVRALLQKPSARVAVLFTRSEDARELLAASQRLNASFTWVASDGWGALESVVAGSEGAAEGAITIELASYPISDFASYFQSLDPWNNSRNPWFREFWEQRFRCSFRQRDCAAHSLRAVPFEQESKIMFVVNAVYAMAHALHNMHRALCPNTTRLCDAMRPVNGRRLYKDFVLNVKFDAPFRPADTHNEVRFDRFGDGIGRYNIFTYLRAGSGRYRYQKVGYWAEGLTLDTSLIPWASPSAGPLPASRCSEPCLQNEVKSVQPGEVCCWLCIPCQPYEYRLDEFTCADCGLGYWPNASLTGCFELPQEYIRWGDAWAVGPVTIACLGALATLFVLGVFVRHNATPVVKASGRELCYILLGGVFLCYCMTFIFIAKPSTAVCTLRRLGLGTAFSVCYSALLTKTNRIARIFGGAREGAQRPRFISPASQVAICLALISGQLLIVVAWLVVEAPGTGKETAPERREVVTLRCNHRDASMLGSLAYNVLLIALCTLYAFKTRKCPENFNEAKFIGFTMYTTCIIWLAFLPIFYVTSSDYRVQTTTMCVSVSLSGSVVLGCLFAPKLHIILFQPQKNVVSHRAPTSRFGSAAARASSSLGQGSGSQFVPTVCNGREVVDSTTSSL
Assay: [35S]-GTPγS binding assay of mGluR2 receptor activation
Format: biochemical
Details: membranes from CHO cells stably expressing human mGluR2; 1 μM glutamate
Procedure: A [^35S]-GTPγS binding assay was used to functionally assay mGluR2 receptor activation. The allosteric activator activity of compounds at the human mGluR2 receptor were measured using a [^35S]-GTPγS binding assay with membranes prepared from CHO cells which stably express the human mGluR2. […] The GTPγS binding assay therefore provides a quantitative measure of receptor activation. […]
Threshold-based label: EC50 under 900 nM gives 1, EC50 not under 900 nM gives 0.

Before answering, review these 3 worked examples.
molecule=Cc1cc(-c2cccc(CN(C)C)c2)cc2c1C(=O)N(Cc1ccc(OC(F)(F)F)cc1)C2 target_system="human mGluR2 receptor (Homo sapiens)" label=1
molecule=COCCN1CCN(c2ccc3c(c2)CN(Cc2ccc(OC(F)(F)F)cc2)C3=O)CC1 target_system="human mGluR2 receptor (Homo sapiens)" label=0
molecule=Cc1ccc(CN2Cc3cc(C4=CCN(C)CC4)ccc3C2=O)cc1 target_system="human mGluR2 receptor (Homo sapiens)" label=0

Query string: In plain terms, does COc1cc(N2CCC(N(C)C)C2)cc2c1C(=O)N(Cc1ccc(OC(F)(F)F)cc1)C2 (centres unmarked) come in under 900 nM for EC50?
Result string: 0
